Hello, the source for this data is patent US11773085B2, in case you need it.

Target: Nanoluciferase-BRD9 fusion protein (3×FLAG-NLuc-BRD9) (Homo sapiens (Human), UniProt Q9H8M2)
Experiment: SYO1 BRD9 NanoLuc degradation assay
Assay type: cell-based
Settings: SYO-1 cells expressing 3×FLAG-NLuc-BRD9, 6 hours, 1 μM top dose; read-out: SYO1 BRD9-NanoLuc degradation IC50
Items are presented alongside their recorded DC50.
quantity_measured: DC50

compound	result
COc1cc(OCC(=O)NCCCCCCCCNc2cccc3c2C(=O)N(C2CCC(=O)NC2=O)C3=O)cc(-c2cn(C)c(=O)c3cnccc23)c1 (stereo not drawn)	< 0.01 µM
COc1cc(-c2cn(C)c(=O)c3cnccc23)cc(OC)c1CN(C)CC(=O)N(C)CCOCCOCCNc1ccc2c(c1)C(=O)N(C1CCC(=O)NC1=O)C2=O (stereo not drawn)	0.01 to 0.1 µM
COc1cc(-c2cn(C)c(=O)c3cnccc23)cc(OC)c1CN(C)CCCCCCCC(=O)N[C@H](C(=O)N1C[C@H](O)C[C@H]1C(=O)NCc1ccc(-c2scnc2C)cc1)C(C)(C)C	> 1 µM
COc1cc(-c2cn(C)c(=O)c3cnccc23)cc(OC)c1CN(C)CC(=O)NCCCCCCCCNc1cccc2c1C(=O)N(C1CCC(=O)NC1=O)C2=O (stereo not drawn) [Compound D2, formic acid]	< 0.01 µM
COc1cc(-c2cn(C)c(=O)c3cnccc23)cc(OC)c1CN(C)CC(=O)N(C)CCOCCOCCNc1cccc2c1C(=O)N(C1CCC(=O)NC1=O)C2=O (stereo not drawn)	0.01 to 0.1 µM
COc1cc(-c2cn(C)c(=O)c3cnccc23)cc(OCC(=O)NCCCCCCCCNc2cccc3c2C(=O)N(C2CCC(=O)NC2=O)C3=O)c1OC (stereo not drawn)	< 0.01 µM
COc1cc(-c2cn(C)c(=O)c3cnccc23)cc(OC)c1CN(C)C(=O)CCCCCOc1cccc2c1C(=O)N(C1CCC(=O)NC1=O)C2=O (stereo not drawn)	< 0.01 µM
COc1cc(NCC(=O)NCCCCCCCCNc2cccc3c2C(=O)N(C2CCC(=O)NC2=O)C3=O)cc(-c2cn(C)c(=O)c3cnccc23)c1 (stereo not drawn)	< 0.01 µM
COc1cc(-c2cn(C)c(=O)c3cnccc23)cc(OC)c1CN(C)CCc1cccc2c1C(=O)N(C1CCC(=O)NC1=O)C2=O (stereo not drawn)	> 1 µM

* * *

Molecular target: BRD9 bromodomain (Homo sapiens (Human))
Assay: BRD9 bromodomain TR-FRET competition binding assay
Conditions: 3 nM Flag-BRD9, 3.75 nM biotinylated ligand, 90 minutes at room temperature
Procedure: Cleaved His tag was removed by purification. A mixture of biotinylated-ligand and SureLight™ Allophycocyanin-Streptavidin (APC-SA, PerkinElmer AD0201) in 50 mM HEPES (pH 7.4), 50 mM NaCl, 1 mM TCEP (pH 7), 0.01% (v/v) Tween-20, 0.01% (w/v) bovine serum albumin was added to a white 384-well PerkinElmer Proxiplate Plus plate. DMSO or 3-fold serially diluted compounds were then added to the Proxiplate followed by addition of Flag-BRD9. […]
quantity_measured: IC50

compound	test_target	result
CCn1cc(C(=O)NCc2ccccc2)c2cn[nH]c2c1=O [Compound B9]	BRD9 bromodomain (Homo sapiens (Human))	> 1 µM
COc1cc(/C=C/c2c(C)noc2C)cc(OC)c1CN(C)C [Compound B68]	BRD9 bromodomain (Homo sapiens (Human))	> 1 µM
COc1cc(-c2cn(C)c(=O)c3cnccc23)cc(OC)c1CN(C)CC(=O)NCCCCCNc1cccc2c1C(=O)N(C1CCC(=O)NC1=O)C2=O (stereo not shown) [Compound D3, formic acid]	BRD9 bromodomain (Homo sapiens (Human))	0.01 to 0.1 µM
CCOC(=O)Nc1c(C)c(-c2cc(OC)c(CN(C)C)c(OC)c2)cn(C)c1=O [Compound B42]	BRD9 bromodomain (Homo sapiens (Human))	> 1 µM
COc1cc(-c2cn(C)c(=O)c3cnccc23)cc(OC)c1CN(C)CCN(C)CCOCCOc1cccc2c1C(=O)N(C1CCC(=O)NC1=O)C2=O (stereo not shown) [Compound D1, formic acid]	BRD9 bromodomain (Homo sapiens (Human))	0.01 to 0.1 µM
COc1cc(-c2cc(N)c(=O)n(C)c2)cc(OC)c1CN(C)C [Compound B28]	BRD9 bromodomain (Homo sapiens (Human))	0.01 to 0.1 µM
COc1cc(-c2cn(C)c(=O)c3[nH]cnc23)cc(OC)c1CN(C)C [Compound B47, formic acid]	BRD9 bromodomain (Homo sapiens (Human))	0.01 to 0.1 µM
CN(Cc1ccccc1)C(=O)c1cn(C)c(=O)c2[nH]ncc12 [Compound B7]	BRD9 bromodomain (Homo sapiens (Human))	> 1 µM
COc1cc(-c2nn(C)c(=O)c3cnccc23)cc(OC)c1CN(C)C [Compound B62, 2,2,2-trifluoroacetate]	BRD9 bromodomain (Homo sapiens (Human))	0.01 to 0.1 µM
CC(=O)c1cc(-c2cccc3nccn23)c2cc(N3CCOCC3)ccn12 [Compound B16]	BRD9 bromodomain (Homo sapiens (Human))	0.1 to 1 µM
Cn1cc(C(=O)NCc2cccc3ccccc23)c2cn[nH]c2c1=O [Compound B4]	BRD9 bromodomain (Homo sapiens (Human))	> 1 µM
COc1cc(-c2cc(C)c(=O)n(C)c2)cc(OC)c1CN1CC(C(=O)O)C1 [Compound B48]	BRD9 bromodomain (Homo sapiens (Human))	0.1 to 1 µM
COc1cc(-c2cn(C)c(=O)c3cnccc23)cc(OC)c1CN(C)CC(=O)NCCCCCCCCNC(=O)COc1cccc2c1C(=O)N(C1CCC(=O)NC1=O)C2=O (stereo not shown) [Compound D5]	BRD9 bromodomain (Homo sapiens (Human))	< 0.01 µM
Cn1cc(C(=O)NCc2ccccc2)c2ccncc2c1=O [Compound B3]	BRD9 bromodomain (Homo sapiens (Human))	> 1 µM
COc1cc(-c2cc(NC(C)=O)c(=O)n(C)c2)cc(OC)c1CN(C)C [Compound B29]	BRD9 bromodomain (Homo sapiens (Human))	0.1 to 1 µM
COc1cc(-c2cn(C)c(=O)c3cnccc23)cc(OCC(=O)NCCCCCCCCNc2cccc3c2C(=O)N(C2CCC(=O)NC2=O)C3=O)c1OC (stereo not shown) [Compound D10]	BRD9 bromodomain (Homo sapiens (Human))	0.01 to 0.1 µM
COc1cc(C#N)ccc1S(=O)(=O)Nc1ccc2c(c1)cc(C)c(=O)n2C [Compound B26]	BRD9 bromodomain (Homo sapiens (Human))	> 1 µM
COc1cc(-c2cc(NC(C)=O)c3nnc(C)n3c2)cc(OC)c1CN(C)C [Compound B60]	BRD9 bromodomain (Homo sapiens (Human))	0.01 to 0.1 µM
O=C(NCc1ccccc1)c1cn(CC2CC2)c(=O)c2[nH]ncc12 [Compound B13]	BRD9 bromodomain (Homo sapiens (Human))	> 1 µM
CNCc1c(OC)cc(-c2cn(C)c(=O)c3cnccc23)cc1OC [Compound B53]	BRD9 bromodomain (Homo sapiens (Human))	0.01 to 0.1 µM
CC(=O)c1cc(-c2cccc3nccn23)c2cc(N3CCN(C)CC3)ccn12 [Compound B17]	BRD9 bromodomain (Homo sapiens (Human))	0.1 to 1 µM
COc1cc(-c2cc(NC(=O)N(C)C)c3nncn3c2)cc(OC)c1CN(C)C [Compound B58]	BRD9 bromodomain (Homo sapiens (Human))	> 1 µM
COc1cc(OCC(=O)NCCCCCCCCNc2cccc3c2C(=O)N(C2CCC(=O)NC2=O)C3=O)cc(-c2cn(C)c(=O)c3cnccc23)c1 (stereo not shown) [Compound D6]	BRD9 bromodomain (Homo sapiens (Human))	0.01 to 0.1 µM
COc1cc(-c2cn(C)c(=O)c3cnccc23)cc(OC)c1CN(C)CC(=O)NCCCCCCCCCC(=O)N[C@H](C(=O)N1C[C@H](O)C[C@H]1C(=O)NCc1ccc(-c2scnc2C)cc1)C(C)(C)C (stereo in doubt) [Compound D18]	BRD9 bromodomain (Homo sapiens (Human))	< 0.01 µM
COc1cc(-c2cn(C)c(=O)c3cnccc23)cc(OC)c1CN1CC(N)C1 [Compound B20]	BRD9 bromodomain (Homo sapiens (Human))	< 0.01 µM
COc1cc(-c2cn(C)c(=O)c3cnccc23)cc(OC)c1CN1CC(CC(=O)O)C1 [Compound B41, formic acid]	BRD9 bromodomain (Homo sapiens (Human))	0.01 to 0.1 µM
COc1cc(-c2cn(C)c(=O)c3cnccc23)cc(SC)c1CN(C)C [Compound B54]	BRD9 bromodomain (Homo sapiens (Human))	< 0.01 µM
COc1cc(-c2cn(C)c(=O)c3cnccc23)cc(OC)c1CN(C)S(=O)(=O)C(C)C [Compound B49]	BRD9 bromodomain (Homo sapiens (Human))	0.01 to 0.1 µM
